target: human D2L receptor (Homo sapiens); construct: expressed in transfected cells; assay: Fast dissociation (indirect [3H]spiperone filter assay); format: binding; settings: compound at 4 times its IC50 pre-incubated 1 h at 25° C.; [3H]spiperone 1 nM on filter for 5 minutes
Sequence (P14416 whole entry): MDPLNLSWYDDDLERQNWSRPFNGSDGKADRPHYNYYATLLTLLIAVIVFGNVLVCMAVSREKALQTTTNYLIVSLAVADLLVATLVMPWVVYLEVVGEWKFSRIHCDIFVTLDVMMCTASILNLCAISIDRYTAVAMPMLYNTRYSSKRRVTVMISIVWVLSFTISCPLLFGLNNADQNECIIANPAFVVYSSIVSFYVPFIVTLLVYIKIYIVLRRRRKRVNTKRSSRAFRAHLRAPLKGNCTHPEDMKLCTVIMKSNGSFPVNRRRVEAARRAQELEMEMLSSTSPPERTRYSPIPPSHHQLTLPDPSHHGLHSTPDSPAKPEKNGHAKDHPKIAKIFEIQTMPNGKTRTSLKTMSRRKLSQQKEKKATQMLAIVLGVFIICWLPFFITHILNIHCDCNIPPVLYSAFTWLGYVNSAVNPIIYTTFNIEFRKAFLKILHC
Listed here: items and their measured % Dissociation.
Supply the numeric figure in %, leaving out any unit text.

Exam item: Item under review: Cc1ccc(CN2CCC(Nc3ccc(C#N)nn3)CC2)cc1F [Example E4] . Reported % Dissociation?
Marked response: 82

Exam item: Item under review: N#Cc1ccc(NC2CCN(Cc3ccc(Cl)cc3)CC2)nn1 [Example E3] . Reported % Dissociation?
Marked response: 87

Exam item: Item under review: N#Cc1ccc(NC2CCN(Cc3ccc(C(F)(F)F)cc3)CC2)nn1 [Example E7] . Reported % Dissociation?
Marked response: 93.50

Exam item: Item under review: N#Cc1ccc(NC2CCN(Cc3cc(F)c(F)c(F)c3)CC2)nn1 [Example E18] . Reported % Dissociation?
Marked response: 95

Exam item: Item under review: N#Cc1ccc(NC2CCN(Cc3cccc(C(F)(F)F)c3)CC2)nn1 [Example E16] . Reported % Dissociation?
Marked response: 79.50

Exam item: Item under review: Cc1c(C#N)nnc(NC2CCN(Cc3cc(F)cc(F)c3)CC2)c1C [Example E19] . Reported % Dissociation?
Marked response: 83.66

Exam item: Item under review: Cc1ccc(CN2CCC(Nc3ccc(C#N)nn3)CC2)cc1 [Example E6] . Reported % Dissociation?
Marked response: 84

Exam item: Item under review: N#Cc1ccc(NC2CCN(Cc3cc(F)cc(F)c3)CC2)nn1 [Example E15] . Reported % Dissociation?
Marked response: 93.50

Exam item: Item under review: N#Cc1ccc(NC2CCN(Cc3cc(F)cc(C(F)(F)F)c3)CC2)nn1 [Example E17] . Reported % Dissociation?
Marked response: 73

Exam item: Item under review: N#Cc1ccc(NC2CCN(Cc3ccc(C(F)(F)F)c(F)c3)CC2)nn1 [Example E8] . Reported % Dissociation?
Marked response: 89.50

---

readout: melting point (°C)
Supply the numeric figure in °C, leaving out any unit text.

Exam item: Item under review: N#Cc1ccc(NC2CCN(Cc3cccc(C(F)(F)F)c3)CC2)nn1 . Reported melting point?
Marked response: 170.3

Exam item: Item under review: N#Cc1ccc(NC2CCN(Cc3ccc(F)c(F)c3)CC2)nn1 [Example E1] . Reported melting point?
Marked response: 189.86

Exam item: Item under review: N#Cc1ccc(NC2CCN(Cc3cccc(Cl)c3)CC2)nn1 . Reported melting point?
Marked response: 151

---

Target or system human Dopamine D2L receptor (Homo sapiens): recorded pIC50 listed per item.
Convention used: pIC50 is expressed as -log10 of the molar concentration.

N#Cc1ccc(NC2CCN(Cc3ccc(F)cc3)CC2)nn1 [Example E2] : 5.49

Alright, here's another compound for you.
Exam item: API: value(readout= pIC50, system= human Dopamine D2L receptor (Homo sapiens), query= N#Cc1ccc(NC2CCN(Cc3ccc(F)c(F)c3)CC2)nn1 [Example E1] )
Marked response: 5.39

---

Listed here: items and their measured melting point.
Provide a numeric answer, followed by its unit.

Exam item: Item under review: N#Cc1ccc(NC2CCN(Cc3cc(F)cc(F)c3)CC2)nn1 . Reported melting point?
Marked response: 187.9 °C

---

Listed here: items and their measured melting point.
Provide a numeric answer, followed by its unit.

Exam item: Item under review: Cc1ccc(CN2CCC(Nc3ccc(C#N)nn3)CC2)cc1C(F)(F)F . Reported melting point?
Marked response: 187.3 °C

Exam item: Item under review: N#Cc1ccc(NC2CCN(Cc3cc(F)c(F)c(F)c3)CC2)nn1 . Reported melting point?
Marked response: 185 °C

Exam item: Item under review: Cc1ccc(CN2CCC(Nc3ccc(C#N)nn3)CC2)cc1F . Reported melting point?
Marked response: 171.84 °C

Exam item: Item under review: N#Cc1ccc(NC2CCN(Cc3ccc(F)c(C(F)(F)F)c3)CC2)nn1 . Reported melting point?
Marked response: 183.1 °C

Exam item: Item under review: N#Cc1ccc(NC2CCN(Cc3ccc(C(F)(F)F)c(F)c3)CC2)nn1 . Reported melting point?
Marked response: 178.6 °C

Exam item: Item under review: Cc1ccc(CN2CCC(Nc3ccc(C#N)nn3)CC2)cc1 . Reported melting point?
Marked response: 191.62 °C
